For each entry below, report its ETS1 binding intensity value.
# STUDY TARGET: ETS1 (UniProt P14921)
# Sequence: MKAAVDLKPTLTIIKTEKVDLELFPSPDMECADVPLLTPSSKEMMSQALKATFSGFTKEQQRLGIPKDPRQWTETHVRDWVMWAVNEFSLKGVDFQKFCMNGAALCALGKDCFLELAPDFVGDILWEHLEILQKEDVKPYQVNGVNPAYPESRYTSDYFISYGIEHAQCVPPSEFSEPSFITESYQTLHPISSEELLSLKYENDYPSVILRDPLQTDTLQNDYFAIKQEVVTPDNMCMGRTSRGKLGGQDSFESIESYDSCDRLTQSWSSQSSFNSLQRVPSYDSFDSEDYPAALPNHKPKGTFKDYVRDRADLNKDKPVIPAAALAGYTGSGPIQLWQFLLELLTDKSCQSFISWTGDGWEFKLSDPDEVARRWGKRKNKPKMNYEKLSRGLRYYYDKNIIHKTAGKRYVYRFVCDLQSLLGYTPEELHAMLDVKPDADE
# EXPERIMENT DESCRIPTION: ETS1 binding intensity (PBM fluorescence) in presence of RUNX1, normalised to ETS1-only experiment (arbitrary fluorescence units); higher = stronger binding
# CONDITION DETAILS: ETS1 concentration 1 nM; RUNX1 concentration 25 nM
Please reply with the value in numeric form only.

Req: Entry under review: GGAACAGGAAGCGGCAGAAATAGCAGCCACCGCGGC . Reported ETS1 binding intensity?
Resp: 1540

Req: Given the entry ATTAAAGACTTCCGTGCAAGACCACAGCTGCCTGAC , report its measured ETS1 binding intensity.
Resp: 513

Req: Form field: reported ETS1 binding intensity of GGAGGAAGAGAGGAAACGGGGGCGGCCGCAGCTTCT
Resp: 1070

Req: Quick check: ETS1 binding intensity of TTCGGATTCCCGGAAGAACCCGCAGCAGCTCCCAGG ?
Resp: 1020

Req: Entry CTAACCCTTCTCTTCCTGCAAAAACCACAACAAAGG : reported ETS1 binding intensity = ?
Resp: 1720

Req: Given the sequence CACCGCCGGAGTCCCGGATGTGGTTGCTAGGGCAGC , what is its reported ETS1 binding intensity?
Resp: 14900

Req: Returns the measured ETS1 binding intensity for the input sequence. Input: CTGTTTCCTGCCTTTGCTGTCTGTGACCGCATCAGT
Resp: 1490

Req: ETS1 binding intensity for GGGAGGAAGTGTGAAGGGACTTTTGTGGTGAGTGAT ?
Resp: 910

Req: Request the reported ETS1 binding intensity associated with CTCAGAGCTGCGGAAACTACAACTCCCACAAGGCTG
Resp: 633

Req: Look up ETS1 binding intensity: CCTAGAACCGGAAGAGAAAGGGGCTGCGGTGCAGCA
Resp: 6270

Req: Find the recorded ETS1 binding intensity belonging to CTGCCCACCGGAAACGATGGCGCGAGGCCGCAGAGC and report it.
Resp: 7790

Req: Which ETS1 binding intensity value is on record for GGTTGTGGAGTAGGATGTGGTGTCTAGCTTTCAGCA ?
Resp: 568

----------
# STUDY TARGET: RUNX1 (UniProt Q01196)
# Sequence (Q01196 whole entry): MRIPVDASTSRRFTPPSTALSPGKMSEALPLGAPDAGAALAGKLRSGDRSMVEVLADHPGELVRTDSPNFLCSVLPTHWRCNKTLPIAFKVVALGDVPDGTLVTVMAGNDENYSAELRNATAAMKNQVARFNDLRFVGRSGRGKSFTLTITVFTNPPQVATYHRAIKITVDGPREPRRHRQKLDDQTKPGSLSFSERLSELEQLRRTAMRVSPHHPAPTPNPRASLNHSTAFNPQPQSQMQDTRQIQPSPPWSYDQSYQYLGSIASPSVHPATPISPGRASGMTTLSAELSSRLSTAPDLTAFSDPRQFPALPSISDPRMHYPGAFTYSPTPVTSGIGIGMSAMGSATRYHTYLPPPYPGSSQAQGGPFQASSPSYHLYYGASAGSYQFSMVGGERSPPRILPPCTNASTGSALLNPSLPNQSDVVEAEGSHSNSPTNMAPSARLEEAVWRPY
# EXPERIMENT DESCRIPTION: RUNX1 binding intensity (PBM fluorescence), RUNX1 alone (arbitrary fluorescence units); higher = stronger binding
# CONDITION DETAILS: RUNX1 concentration 2 nM; ETS1 concentration 0 nM
// Not satisfied strictly below 1000 in RUNX1 binding intensity; Satisfied otherwise

Req: Reported RUNX1 binding intensity reaches at least 1000 for TTTCACTTCCGGCATGTTTTTCACCCACAGGGATAT ?
Resp: Satisfied

Req: Entry CTTCACTATGCATCCTGTACTGCAACCACACCAAAC : is its RUNX1 binding intensity no less than 1000?
Resp: Satisfied

Req: Could you please find out whether TGAAGTTGGTGTTTTCCGGGGGCGGTTTTTCCATTG has RUNX1 binding intensity that meets 1000 or exceeds it?
Resp: Not satisfied

Req: Form field: RUNX1 binding intensity at least 1000? Entry: CCATATCTGGCTTCCTAAGGAGGAACCACAAACCGT
Resp: Satisfied

Req: Identify whether the reported RUNX1 binding intensity of the following sequence is 1000 or greater: CTCAGGAATGCGGAAGTGCTCTGTGGGCACCCACCA
Resp: Not satisfied

Req: Could you verify whether the entry CCGGGCTGCGGAAGGCGGGAACTCTGCGGTTCGCGG shows RUNX1 binding intensity of no less than 1000?
Resp: Not satisfied
